- subject_of_test: binding of rabbit Ig-HRP by solid phase Protein A
- protocol_summary: Inhibition of binding of Ig-HRP to solid phase Protein A
- measurement_conditions: Ig-HRP 1:5000 in PBS, preincubated 1 hour 37° C.; read-out: concentration at 50% inhibition of Protein A binding of Ig-HRP
No end group written: not given here.
assay_endpoint: IC50

Simply: LEQGENVFLQATLLC [CBP2, C1q B chain residues 189-200 plus Leu Leu Cys at the carboxyl terminus] , binding of rabbit Ig-HRP by solid phase Protein A, IC50 = ~1 µM

====

- subject_of_test: binding of rabbit Ig-HRP to solid phase C1q
- protocol_summary: Inhibition of binding of Ig-HRP to solid phase C1q
- measurement_conditions: Ig-HRP 1:100 in C1q buffer, 25° C.; read-out: 50% inhibition concentration, Ig-HRP binding to solid phase C1q
No end group written: not given here.
assay_endpoint: IC50

# sequence LEQGENVFLQATLLC [CBP2, C1q B chain residues 189-200 plus Leu Leu Cys at the carboxyl terminus] ; its IC50 = ~10 µM
